# System: biotinyl-Trp-oxazolone
# assay-name: self-aminoacylation, catalytic enhancement (BWO) (fold over background); higher = more active; k-Seq, kA / k0A0; sequences stand for … in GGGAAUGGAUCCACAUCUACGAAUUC…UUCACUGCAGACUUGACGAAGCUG
This sample holds only a part of the variants without activity.
Decision: self-aminoacylation >= 2 yields class 1, all other cases yield class 0.

Use these answered entries as a reference point.
1) AAUAACCUAGGUCAUCGGGUG [Fam2.2 aminoacylation ribozyme variant] :: class 1
2) AAUGACCUAGGUCAUCGGGUG [Fam2.2 aminoacylation ribozyme variant] :: class 1
3) AUUCAACUAGGUCAUCGGAUG [Fam2.2 aminoacylation ribozyme variant] :: class 0
4) AUUGACCUAGGUCAUCUGGUG [Fam2.2 aminoacylation ribozyme variant] :: class 1

Task item: For this sequence, is measured self-aminoacylation 2 or higher? CCACACUUCUAACAAUCGGUC [Fam1B.1 aminoacylation ribozyme variant]
Reply: class 0

Task item: Hello, I need to know if AAGGUUGCUAAUAGUCGCGAG [Fam3.1 aminoacylation ribozyme variant] has measured self-aminoacylation not below 2. Thanks!
Reply: class 0

Task item: Dear colleague, could you confirm whether AUUACCCUGUUCAUCGGGUGA [Fam2.1 aminoacylation ribozyme variant] has self-aminoacylation at or above 2?
Reply: class 1

Task item: Is it the case that UUUACCCUGGUCAUCGAGUCA [Fam2.1 aminoacylation ribozyme variant] has self-aminoacylation reaching or exceeding 2?
Reply: class 0

Task item: Confirm if self-aminoacylation reported for the sequence CCACCCUUCAAGCAAUCGGAC [Fam1B.1 aminoacylation ribozyme variant] is 2 or above.
Reply: class 0
